Give phosphorylation enrichment for every item shown.
- target_entity: FGFR1 (UniProt P11362)
- Sequence (P11362 whole entry, looked up): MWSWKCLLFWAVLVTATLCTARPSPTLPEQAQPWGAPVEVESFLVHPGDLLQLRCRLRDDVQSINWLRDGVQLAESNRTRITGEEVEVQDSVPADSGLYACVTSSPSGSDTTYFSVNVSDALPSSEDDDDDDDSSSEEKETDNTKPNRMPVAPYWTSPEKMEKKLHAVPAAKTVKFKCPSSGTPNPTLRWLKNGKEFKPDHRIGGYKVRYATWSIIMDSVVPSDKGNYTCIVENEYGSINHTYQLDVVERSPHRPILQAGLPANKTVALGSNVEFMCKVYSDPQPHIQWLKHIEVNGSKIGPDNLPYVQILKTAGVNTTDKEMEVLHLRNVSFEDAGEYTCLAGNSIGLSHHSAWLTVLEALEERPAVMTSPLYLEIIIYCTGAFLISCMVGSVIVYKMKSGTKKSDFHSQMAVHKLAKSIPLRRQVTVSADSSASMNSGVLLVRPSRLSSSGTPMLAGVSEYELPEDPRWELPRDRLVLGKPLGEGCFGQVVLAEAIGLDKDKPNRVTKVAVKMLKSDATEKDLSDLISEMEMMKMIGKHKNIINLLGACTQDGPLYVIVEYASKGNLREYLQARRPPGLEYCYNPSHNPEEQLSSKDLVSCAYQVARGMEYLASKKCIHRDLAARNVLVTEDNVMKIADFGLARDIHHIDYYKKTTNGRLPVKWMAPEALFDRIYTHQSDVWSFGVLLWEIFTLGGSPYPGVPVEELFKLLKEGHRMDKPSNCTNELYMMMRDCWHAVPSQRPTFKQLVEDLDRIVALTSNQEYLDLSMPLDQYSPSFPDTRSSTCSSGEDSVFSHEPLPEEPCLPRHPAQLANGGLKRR
- protocol_summary: phosphorylation enrichment, bacterial display (enrichment ratio); higher = better substrate or ligand; peptides without Tyr show the background;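 also: 11-residue human phosphosite peptides and single-mutation variants displayed on the E. coli surface, counted by deep sequencing, each peptide's frequency after selection divided by its frequency in the unselected input library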;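 also: frequency after pTyr selection over input frequency; kinase dosed for 20-30% of maximal phosphorylation in three min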
Lab note: write the figure by itself, no unit.

Entry NHQYDYTFHWT [CSNK1A1_Y294_D297H] ; assay system FGFR1 (UniProt P11362); phosphorylation enrichment recorded at 5.52

Entry DTKAFYPEEIS [HSPA1A_Y115_E110D] ; assay system FGFR1 (UniProt P11362); phosphorylation enrichment recorded at 0.482

Entry ATGGFYSYGGG [KRT24_Y120] ; assay system FGFR1 (UniProt P11362); phosphorylation enrichment recorded at 0.506

Entry GEPLSYTRFSL [TFRC_Y20] ; assay system FGFR1 (UniProt P11362); phosphorylation enrichment recorded at 0.452

Entry LEIETYRRLLD [KRT12_Y429] ; assay system FGFR1 (UniProt P11362); phosphorylation enrichment recorded at 0.45

Entry PMWHPYKADVT [TP53TG5_Y255_V257A] ; assay system FGFR1 (UniProt P11362); phosphorylation enrichment recorded at 0.309

Entry WNGDKYAATTT [TRIM39_Y439] ; assay system FGFR1 (UniProt P11362); phosphorylation enrichment recorded at 0.654

Entry PDGREYIFVDP [PDGFRA_Y572_H570R_YF] ; assay system FGFR1 (UniProt P11362); phosphorylation enrichment recorded at 1.86

Entry QPGTDYKIFLF [FN1_Y1970_YF] ; assay system FGFR1 (UniProt P11362); phosphorylation enrichment recorded at 1.17

Entry MSIWPYLQKID [MFSD8_Y63] ; assay system FGFR1 (UniProt P11362); phosphorylation enrichment recorded at 0.422

Entry DTCPPYVLSQG [GJB4_Y237] ; assay system FGFR1 (UniProt P11362); phosphorylation enrichment recorded at 0.552

Entry LWKWKYEELKE [CCDC102B_Y299] ; assay system FGFR1 (UniProt P11362); phosphorylation enrichment recorded at 0.573

Entry LKALKYKSMKI [ITGA11_Y1098] ; assay system FGFR1 (UniProt P11362); phosphorylation enrichment recorded at 0.225

Entry GSLEDYVRETN [GIMAP6_Y176] ; assay system FGFR1 (UniProt P11362); phosphorylation enrichment recorded at 0.501

Entry TLLPDYEDEEE [ZNF830_Y159_S154T] ; assay system FGFR1 (UniProt P11362); phosphorylation enrichment recorded at 0.683

Entry FSPGSYERETF [NF1_Y2192] ; assay system FGFR1 (UniProt P11362); phosphorylation enrichment recorded at 0.483

Entry KIDAKYKKKIK [WDR19_Y1230_E1235K] ; assay system FGFR1 (UniProt P11362); phosphorylation enrichment recorded at 0.376

Entry MNPPPYSQLLS [FGF23_Y154_F157L] ; assay system FGFR1 (UniProt P11362); phosphorylation enrichment recorded at 0.527

Entry AEKPKYQISNI [TJP1_Y1602_N1605S] ; assay system FGFR1 (UniProt P11362); phosphorylation enrichment recorded at 0.358

Entry GTQGSYLLSRK [UGT3A1_Y123_C121G] ; assay system FGFR1 (UniProt P11362); phosphorylation enrichment recorded at 0.366

Entry PIAPVYAASMV [ACAT1_Y331] ; assay system FGFR1 (UniProt P11362); phosphorylation enrichment recorded at 0.744

Entry YDKEYYSVHNK [MET_Y1235] ; assay system FGFR1 (UniProt P11362); phosphorylation enrichment recorded at 4.29

Entry ESDFTYSSSFE [SRPK2_Y427_YF] ; assay system FGFR1 (UniProt P11362); phosphorylation enrichment recorded at 0.53

Entry CYCSWYRGWAP [TIMP3_Y195_G190C] ; assay system FGFR1 (UniProt P11362); phosphorylation enrichment recorded at 1.19

Entry MRALTYCDLHK [KCNH2_Y827_V822M] ; assay system FGFR1 (UniProt P11362); phosphorylation enrichment recorded at 0.509

Entry TFHNTYHSQMR [IL1RAPL1_Y615] ; assay system FGFR1 (UniProt P11362); phosphorylation enrichment recorded at 0.458

Entry SHMVNYQPFRK [TEX37_Y25_D24N_YF] ; assay system FGFR1 (UniProt P11362); phosphorylation enrichment recorded at 0.347

Entry KNKLNYTLPQD [NRAP_Y523] ; assay system FGFR1 (UniProt P11362); phosphorylation enrichment recorded at 0.419

Entry KPAFSYTSSST [SIM1_Y356] ; assay system FGFR1 (UniProt P11362); phosphorylation enrichment recorded at 0.415
